Numbers sourced from patent US9409884B2.

- target: AMPK
- procedure.text: AMPK activation, enzyme-linked immunosorbent assay
- Format: biochemical
- experimental.setup: Table 8, compounds of Table 1
readout.type: EC50

Answered examples (5):
CC(C)(C)OC(=O)N1CCC(NC(=O)c2sc3cc(OC4CCN(c5ccc(C(F)(F)F)cc5)CC4)ccc3c2Cl)CC1 | 1000 to 5000 nM
N#Cc1ccc(CN2CCC(NC(=O)c3cc4cc(OC5CCN(Cc6cnn(-c7ccc(C#N)cc7)c6)CC5)ccc4o3)CC2)cc1 | < 100 nM
FC(F)(F)c1ccc(N2CCC(Oc3ccc4c(c3)CCC4NC3CCNCC3)CC2)cc1 (stereo not drawn) | 1000 to 5000 nM
O=C(NC1CCN(Cc2ccccn2)CC1)c1sc2cc(OC3CCN(c4ccc(C(F)(F)F)cc4)CC3)ccc2c1Cl | 100 to 500 nM
N#Cc1ccc(CN2CC(NC(=O)c3ccc(OC4CCN(c5ccc(C(F)(F)F)cc5)CC4)cn3)C2)cc1 | 100 to 500 nM

Give EC50 for each listed item.
1. Fc1ccc(CN2CCC(NC3CCc4cc(OC5CCN(c6ccc(C(F)(F)F)cc6)CC5)ccc43)CC2)cc1 (stereo not drawn)
2. N#Cc1ccc(CN2CCC(Oc3ccc4oc(C(=O)NC5CCN(Cc6ccccc6)CC5)cc4c3)CC2)cc1 [Compound 1-70]
3. O=C(NC1CCN(Cc2ccccc2)CC1)c1ccc(OC2CCN(c3ccc(C(F)(F)F)cc3)CC2)cn1
4. CC(C)(C)OC(=O)N1CC[C@@H](NC(=O)c2ccc(OC3CCN(c4ccc(C(F)(F)F)cc4)CC3)cn2)C1
5. O=C(O)c1ccc(CN2CCC(NC(=O)c3ccc(OC4CCN(c5ccc(C(F)(F)F)cc5)CC4)nc3)CC2)cc1
6. O=C(NC1CCN(Cc2ccccc2)CC1)c1cc2cc(OC3CCN(Cc4ccc(Cl)cc4)CC3)ccc2o1
7. N#Cc1ccccc1CN1CCC(NC(=O)c2cc3ccc(OC4CCN(c5ccc(OC(F)(F)F)cc5)CC4)cc3o2)CC1

1. 100 to 500 nM
2. < 100 nM
3. 1000 to 5000 nM
4. 100 to 500 nM
5. 1000 to 5000 nM
6. 100 to 500 nM
7. < 100 nM

State recorded EC50 for all listed compounds.
1. N#Cc1ccc(CN2CCC(NC(=O)c3cc4cc(O[C@@H]5CCN(Cc6cnn(-c7ccc(C#N)cc7)c6)C[C@H]5F)ccc4o3)CC2)cc1
2. Cc1c(C(=O)NC2CCN(Cc3ccccn3)CC2)oc2cc(OC3CCN(c4ccc(C(F)(F)F)cc4)CC3)ccc12
3. N#Cc1ccc(N2CCC(Oc3ccc4oc(C(=O)NC5CCN(Cc6ccccc6)CC5)cc4c3)CC2)cc1
4. O=C(NC1CCN(Cc2ccc(F)cc2)CC1)c1cncc(OC2CCN(c3ccc(C(F)(F)F)cc3)CC2)c1
5. CN(C(=O)c1cc2cc(OC3CCN(c4ccc(C(F)(F)F)cc4)CC3)ccc2o1)C1CCN(Cc2ccc(C(F)(F)F)cc2)CC1
6. O=C(N[C@H]1CCN(Cc2ccncc2)C1)c1cc2cc(OC3CCN(Cc4ccc(Cl)cc4)CC3)ccc2o1

< 100 nM
< 100 nM
< 100 nM
< 100 nM
< 100 nM
1000 to 5000 nM

====

Can you tell me pEC50 for the items I'm about to list?
- target: AMPK
- procedure.text: AMPK activation, enzyme-linked immunosorbent assay
- Type: biochemical
- experimental.setup: Table 14, compounds of Table 7
pEC50: −log10 of the molar value.

COc1ccc(C(=O)C2CCN(C(=O)c3ccc(C(=O)NC4CCN(Cc5ccc(C#N)c(OC)c5)CC4(C)C)cn3)CC2)cc1 (stereo not shown) | 5.00 to 6.00

Look at each compound and report its pEC50.
1. CS(=O)(=O)c1ccc(OC2CCN(c3ccc(C(=O)NC4CCN(Cc5ccc(C#N)cc5)CC4)cn3)CC2)cc1
2. COc1ccc(C(=O)C2CCN(C(=O)c3ccc(C(=O)NC4CCN(Cc5ccc(F)c(OC)c5)CC4(C)C)cn3)CC2)cc1 (stereo not shown)
3. COc1ccc(CN2CCC(NC(=O)c3ccc(C(=O)N4CCC(Oc5ccc6sc(C)nc6c5)CC4)nc3)CC2)cc1

["> 6.00", "5.00 to 6.00", "> 6.00"]

// each listed compound needs a value for pEC50
1. O=C(NC1CCN(Cc2ccc(OC(F)(F)F)cc2)C[C@H]1F)c1ccc(C(=O)N2CCC(C(=O)c3ccc(N4CCOCC4)cc3)CC2)nc1 (stereo partly shown)
2. COc1ccc(C(=O)C2CCN(C(=O)c3ccc(C(=O)Nc4ccc(Oc5ccc(S(F)(F)(F)(F)F)cc5)nc4)nc3)CC2)cc1
3. COc1ccc(C(=O)C2CCN(C(=O)c3ccc(C(=O)NC4CCN(Cc5ccc(C#N)c(C)c5)C[C@H]4F)cn3)CC2)cc1 (stereo partly shown)
4. COc1ccc(C(=O)C2CCN(C(=O)c3ccc(C(=O)NC4CCN(Cc5cnn(C)c5)C[C@H]4F)cn3)CC2)cc1 (stereo partly shown)
5. COc1ccc(CN2CCC(NC(=O)c3ccc(C(=O)N4CCC(C(=O)c5ccc(OC)cc5)CC4)nc3)[C@@H](F)C2)cc1 (stereo partly shown)
6. N#Cc1ccc(OC2CCN(C(=O)c3ccc(C(=O)NC4CCN(Cc5ccc(OC(F)(F)F)cc5)CC4F)cn3)CC2)cc1 (stereo not shown)
7. COc1ccc(C(=O)C2CCN(C(=O)c3ccc(C(=O)N[C@H]4CCN(Cc5ccc(OC(F)(F)F)cc5)C[C@H]4F)cn3)CC2)cc1 (relative stereo)
8. COc1ccc(CN2CCC(NC(=O)c3ccc(C(=O)N4CCCC(C(=O)c5ccc(OC)cc5)C4)nc3)CC2)cc1 (stereo not shown)

["> 6.00", "> 6.00", "> 6.00", "4.70 to 5.00", "> 6.00", "> 6.00", "> 6.00", "5.00 to 6.00"]
